protein stability index reference
B1: TBX5 (parent)
chain: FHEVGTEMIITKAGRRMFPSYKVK

Variants of: B1
experiment description: protein stability index of a GFP-peptide fusion (GPS, HEK-293T) (PSI 1-6); higher = more stable;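 also: lentivirally expressed fusions sorted by FACS into six bins by GFP to DsRed ratio, PSI derived from sequencing read proportions per bin multiplied by bin number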
conditions: c terminus: a fixed tail appended

T6H = 2.01

Just so you know, measured protein stability index for K22Q came out at 1.79

variant P19H , protein stability index observed: 1.09

F1H has a reported protein stability index of 2.41

Sure, the documented protein stability index for I9C is 1.5

Per the record, M17K has protein stability index of 2.11

Quick note, protein stability index for M17G landed at 1.67

Entry under test: F18E . Its protein stability index was 2.34
